assay: Oral bioavailability in female dog at 2 to 5 mg/kg; format: ADME, organism-based, Canis lupus familiaris; details: in vivo
Each entry below carries its recorded bioavailability.

COMPOUND: CCN(C(=O)Cc1ccc(S(C)(=O)=O)cc1)C1CCN(CC[C@@H](c2cc(F)cc(F)c2)C2CCN(S(C)(=O)=O)CC2)CC1 [AZD5672]
bioavailability, %: 51

COMPOUND: CCN(C(=O)Cc1ccc(S(C)(=O)=O)cc1)C1CCN(CC[C@@H](c2cc(F)cc(F)c2)N2CCN(S(C)(=O)=O)CC2)CC1
bioavailability, %: 22

* * *

Each entry below carries its recorded clearance.
assay: Clearance in rat at 1 to 2 mg/kg, iv; type: ADME, organism-based; parameters: dose 1-2 mg/kg, route intravenous; settings: in vivo
READOUT: clearance

SMI: CCN(C(=O)Cc1ccc(S(C)(=O)=O)cc1)C1CCN(CC[C@@H](c2cc(F)cc(F)c2)N2CCN(S(C)(=O)=O)CC2)CC1
DATA VALUE: 71 mL/min/kg

SMI: CCN(C(=O)Cc1ccc(S(C)(=O)=O)cc1)C1CCN(CC[C@@H](c2cc(F)cc(F)c2)C2CCN(S(C)(=O)=O)CC2)CC1
DATA VALUE: 38 mL/min/kg
